Assignment: determine reported growth for the given molecules.
- System: A549/ATCC NSCLC
- measurement-notes: NCI-60 one-dose screen, 48 h (100 = growth as untreated, 0 = no growth, -100 = all killed)
- condition-info: 10 µM unless noted
This is part of a sample that, as a whole, favours compounds with a hit. Of some 83,000 tested, about 20% had one in any assay.
Numbers only, in %.

CCc1ccc(CNc2ccc(N3CCOCC3)c(C(=O)O)c2)cc1
99

Give growth for all molecules that follow.
1. O=[N+]([O-])c1ccc(N=Nc2cc(S(=O)(=O)O)c3cccc(S(=O)(=O)O)c3c2O)cc1
2. N#Cc1c(-c2cccc([N+](=O)[O-])c2)nc(SCC(=O)c2ccc(Cl)cc2)[nH]c1=O
3. COc1ccc(/C=C2\Oc3cc(OCCCCCN4CCCCC4)ccc3C2=O)cc1OC
4. CCCOc1ccc(/C=N/Nc2cc(C)nc3ccc(Cl)cc23)cc1

## Output
1. 114
2. 101
3. 88.7
4. 36.9
